assayed_system: AsPC-1 HiBiT-KRASG12D (Homo sapiens, UniProt P01116, G12D)
Construct: insert the HiBiT tag onto the N-terminus of one or more of the endogenous KRAS alleles; endogenous in cells; host or cells: AsPC-1 (ATCC CRL-1682), CRISPR-Cas9 knock-in clone, one tagged allele
Sequence (P01116 1-188 isoform P01116-2 G12D): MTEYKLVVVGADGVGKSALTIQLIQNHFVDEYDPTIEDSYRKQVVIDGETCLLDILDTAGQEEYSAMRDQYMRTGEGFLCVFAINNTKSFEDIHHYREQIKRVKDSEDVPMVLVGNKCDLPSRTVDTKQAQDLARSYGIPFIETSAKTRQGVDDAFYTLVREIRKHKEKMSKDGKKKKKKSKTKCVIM
test_description: HiBiT degradation assay (G12D), AsPC-1 HiBiT-KRASG12D cells
Format: cell-based
protocol_conditions: ASPC1, AsPC-1 HiBiT-KRASG12D cells, 24 hours treatment, maximum degradation observed
readout_name: Dmax

# compound, readout_name, result
measured = [
    ("CCc1cccc2cc(O)cc(-c3ncc4c(N5CC6CCC(C5)N6)nc(OC[C@]56CCCN5[C@H](COC(=O)N5CCN(c7cc(C(C(=O)N8C[C@H](O)C[C@H]8C(=O)N[C@@H](C)c8ccc(-c9scnc9C)cc8)C(C)C)on7)CC5)CC6)nc4c3F)c12 (single isomer, unassigned)", "Dmax", "80 to 100%"),
    ("CCc1cccc2cc(O)cc(-c3ncc4c(N5CC6CCC(C5)N6)nc(OC[C@@]56CCCN5[C@H](COC(=O)NCc5cc([C@@H](C(=O)N7C[C@H](O)C[C@H]7C(=O)N[C@@H](C)c7ccc(-c8scnc8C)cc7)C(C)C)on5)CC6)nc4c3F)c12", "Dmax", "20 to 60%"),
    ("CCc1cccc2cc(O)cc(-c3ncc4c(N5CC6CCC(C5)N6)nc(OCCN5CCC(CC6CN(c7cc([C@H](C(=O)N8C[C@H](O)C[C@H]8C(=O)N[C@@H](C)c8ccc(-c9scnc9C)cc8)C(C)C)on7)C6)CC5)nc4c3F)c12", "Dmax", "80 to 100%"),
    ("Cc1ncsc1-c1ccc([C@H](C)NC(=O)[C@@H]2C[C@@H](O)CN2C(=O)[C@@H](c2cc(OC3CN(C(=O)OC[C@@H]4CC[C@@]5(COc6nc(N7CC8CCC(C7)N8)c7cnc(-c8cc(O)cc(Cl)c8C8CC8)c(F)c7n6)CCCN45)C3)no2)C(C)C)cc1", "Dmax", "80 to 100%"),
]

====

assayed_system: AsPC-1 HiBiT-KRASG12D (Homo sapiens, UniProt P01116, G12D)
Construct: insert the HiBiT tag onto the N-terminus of one or more of the endogenous KRAS alleles; endogenous in cells; host or cells: AsPC-1 (ATCC CRL-1682), CRISPR-Cas9 knock-in clone, one tagged allele
test_description: HiBiT degradation assay (G12D), AsPC-1 HiBiT-KRASG12D cells
Type: cell-based
protocol_conditions: ASPC1, AsPC-1 HiBiT-KRASG12D cells, 24 hours treatment, maximum degradation observed
Listed here: items and their measured Dmax.
readout_name: Dmax

# compound, readout_name, result
data = [
    ("CCc1cccc2cc(O)cc(-c3ncc4c(N5CC6CCC(C5)N6)nc(OC[C@]56CCCN5[C@@H](COC(=O)N5CCN(c7cc([C@H](C(=O)N8C[C@H](O)C[C@H]8C(=O)N[C@@H](C)c8ccc(-c9scnc9C)cc8)C(C)C)on7)CC5)CC6)nc4c3F)c12 (relative stereo)", "Dmax", "80 to 100%"),
    ("Cc1ncsc1-c1ccc([C@H](C)NC(=O)[C@@H]2C[C@@H](O)CN2C(=O)[C@@H](c2cc(N3CCN(C(=O)OC[C@@H]4CC[C@@]5(COc6nc(N7CC8CCC(C7)N8)c7cnc(-c8cc(O)cc(Cl)c8C8CC8)c(F)c7n6)CCCN45)CC3)no2)C(C)C)cc1 (relative stereo)", "Dmax", "80 to 100%"),
    ("Cc1ncsc1-c1ccc([C@H](C)NC(=O)[C@@H]2C[C@@H](O)CN2C(=O)[C@@H](c2cc(OC[C@@H]3CC[C@]4(COc5nc(N6CC7CCC(C6)N7)c6cnc(-c7cc(O)cc(Cl)c7C7CC7)c(F)c6n5)CCCN34)no2)C(C)C)cc1", "Dmax", "20 to 60%"),
    ("CCc1cccc2cc(O)cc(-c3ncc4c(N5CCCCCC5)nc(OC[C@@H]5CC[C@@H](COC(=O)N6CCN(c7cc([C@H](C(=O)N8C[C@H](O)C[C@H]8C(=O)N[C@@H](C)c8ccc(-c9scnc9C)cc8)C(C)C)on7)CC6)N5C)nc4c3F)c12", "Dmax", "60 to 80%"),
]
